Hello, the source for this data is patent US10501435B2, in case you need it.

biological target: Glucocerebrosidase (Homo sapiens (Human), UniProt P04062); experiment: Glucocerebrosidase activity assay with blue substrate (4MU-Glc); format: biochemical; conditions: cells marked (act); read-out: IC50 or AC50 (μM): AC50 (act)
Sequence (P04062 40-536): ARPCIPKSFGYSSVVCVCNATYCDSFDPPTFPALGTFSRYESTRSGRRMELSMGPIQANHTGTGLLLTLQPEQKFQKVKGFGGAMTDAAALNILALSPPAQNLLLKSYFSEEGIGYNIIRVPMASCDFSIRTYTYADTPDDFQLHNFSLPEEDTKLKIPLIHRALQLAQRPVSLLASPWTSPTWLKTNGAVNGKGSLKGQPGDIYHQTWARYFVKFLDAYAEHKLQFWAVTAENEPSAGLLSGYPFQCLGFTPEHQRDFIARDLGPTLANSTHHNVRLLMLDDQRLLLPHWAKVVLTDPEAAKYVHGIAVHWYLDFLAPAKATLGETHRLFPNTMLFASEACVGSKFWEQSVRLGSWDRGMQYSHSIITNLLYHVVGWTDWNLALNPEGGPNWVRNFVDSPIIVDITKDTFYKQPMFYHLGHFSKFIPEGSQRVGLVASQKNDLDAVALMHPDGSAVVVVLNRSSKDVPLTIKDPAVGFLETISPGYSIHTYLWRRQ
We begin with a simple list: items and their reported AC50.
All answers are understood in µM, so give the number only.

AC50 for c1cncc(-c2nc(NCCC3COc4ccccc4O3)c3ccccc3n2)c1 (stereo not drawn) is 0.6

AC50 for `CN(Cc1ccc2c(c1)OCCO2)c1nc(-c2cccnc2)nc2ccccc12` is 3.98

AC50 for c1cncc(-c2nc(N3CCN(CC4COc5ccccc5O4)CC3)c3ccccc3n2)c1 (stereo not drawn) is 3.13

AC50 for c1ccc(CC2CCCN(c3nc(-c4cccnc4)nc4ccccc34)C2)cc1 (stereo not drawn) is 2.51

AC50 for CN(CC1COc2ccccc2O1)c1nc(-c2cccnc2)nc2ccccc12 (stereo not drawn) is 1.78

AC50 for `c1cncc(-c2nc(N3C4CCC3CC4)c3ccccc3n2)c1` is 2.24
